Data provenance: ChEMBL document CHEMBL1123518

target.entity: UniProtKB P07943
test.description: Compound was tested for 50% inhibitory concentration that was required for irreversible inhibition of aldose reductase
recorded.endpoint: IC50 (µM)

INSERT INTO results (query_smiles, recorded_endpoint, endpoint_value) VALUES
  ('[N-]=[N+]=Nc1cc2c3c(cccc3c1)C(=O)N(CC(=O)O)C2=O', 'IC50', 3.6),
  ('COC(=O)CN1C(=O)c2cccc3cc(N=[N+]=[N-])cc(c23)C1=O', 'IC50', 38),
  ('O=C(O)CN1C(=O)c2cccc3cc(N=C=S)cc(c23)C1=O', 'IC50', 0.3),
  ('COC(=O)CN1C(=O)c2cccc3cc(N=C=S)cc(c23)C1=O', 'IC50', 14);
